Target: T1, Human CD3eg linker (human)
T1 construct: Single chain: CD3 epsilon and gamma subunits joined by a 29-mer linker, Flag-tag at the C-terminus; also called recombinant human CD3
T1 chain: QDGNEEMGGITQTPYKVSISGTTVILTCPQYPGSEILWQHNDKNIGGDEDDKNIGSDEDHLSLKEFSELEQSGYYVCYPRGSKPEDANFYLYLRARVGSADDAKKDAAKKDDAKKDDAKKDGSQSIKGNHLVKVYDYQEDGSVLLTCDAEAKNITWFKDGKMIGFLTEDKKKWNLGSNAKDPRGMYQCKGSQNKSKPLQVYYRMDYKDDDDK
Experiment: SPR Biacore T200, 25 C, Ab captured on anti-human Fc, antigen as analyte;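 also: Anti-Fc amine-coupled to a CM4 chip, recombinant human CD3 flowed over in 20 mM ACES buffer pH 7.4 with 150 mM NaCl and 0.05% Tween 20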
property_label: kon (M⁻¹ s⁻¹)
Could you give me the number in M⁻¹ s⁻¹? Just the number is fine.

Prompt: // returns reported kon for input H1673L0943 (antibody, V domains shown, Dual-Ig, IgG; also called dBBDu183H1673/dBBDu072L0943) VH: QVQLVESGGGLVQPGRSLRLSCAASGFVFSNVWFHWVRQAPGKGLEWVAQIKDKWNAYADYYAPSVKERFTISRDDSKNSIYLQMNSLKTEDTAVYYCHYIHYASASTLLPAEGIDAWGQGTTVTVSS VL: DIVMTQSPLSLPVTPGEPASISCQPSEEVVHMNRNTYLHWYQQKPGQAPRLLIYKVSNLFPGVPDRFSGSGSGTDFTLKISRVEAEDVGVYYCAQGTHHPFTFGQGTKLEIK
Completion: 55000

Prompt: Param item = H1649L0943 (antibody, V domains shown, Dual-Ig, IgG; also called dBBDu183H1649/dBBDu072L0943) VH: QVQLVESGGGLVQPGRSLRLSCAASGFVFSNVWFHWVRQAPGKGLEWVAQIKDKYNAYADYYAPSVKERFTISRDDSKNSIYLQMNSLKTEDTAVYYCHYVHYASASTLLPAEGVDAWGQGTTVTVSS VL: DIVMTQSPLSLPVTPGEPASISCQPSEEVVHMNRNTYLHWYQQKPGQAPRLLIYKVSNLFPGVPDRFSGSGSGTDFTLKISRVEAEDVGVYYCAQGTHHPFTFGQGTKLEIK ; retrieve measured kon.
Completion: 61000

Data credit: patent US20210388087A1
